Measured on: Transcriptional regulator ERG (Homo sapiens)
Test protocol: qHTS for Small Molecule Inhibitors of the ERG Ets/DNA interaction: HTRF assay against cherry picks
Measurement parameters: His-ERG Ets domain with biotin-DNA; series mostly up to 154 µM
In all, about 1,200 compounds went through this assay and about 20 (2%) were called active. Another 23% or so got no clear call; they are omitted. The call rests on the fitted dose curve; in most records, active means well fitted inhibition curve with a large enough effect; inconclusive means small, poorly fitted or top-dose-only effect; inactive means no such curve, though single readings can be large or run the other way. Many of the other results were omitted from the sample, so actives are more common in it than they were.
Form entry, call: pick from class 1 for active, class 0 for inactive

# example entries with known answers
Molecule | Measured on | Class name
CC(=O)NNc1cc(N2CCOCC2)nc(N2CCOCC2)n1 | Transcriptional regulator ERG (Homo sapiens) | class 0
Cc1cc(=O)oc2cc(OCC(=O)OCC(=O)Nc3ccc(C(C)C)cc3)ccc12 | Transcriptional regulator ERG (Homo sapiens) | class 0
CCC(c1nnnn1Cc1ccc(F)cc1)N1CCN(C)CC1 (stereo not drawn) | Transcriptional regulator ERG (Homo sapiens) | class 0
O=C(OCC(=O)c1ccc(Cl)s1)c1cncc(Br)c1 | Transcriptional regulator ERG (Homo sapiens) | class 0
COc1ccc(-n2c(=O)c3c4c(sc3n(Cc3ccc(C(C)(C)C)cc3)c2=O)CCC4)c(OC)c1 | Transcriptional regulator ERG (Homo sapiens) | class 0

// next entry
-- ask Assay outcome for CCC1COC(c2cccn2Cc2ccc(Cl)cc2)=N1 (stereo not drawn) : what was it?
-- reply class 0
